# Species: Rattus norvegicus
# test_name: DrugMatrix - Regimen: Daily Repeat
# Type: toxicity, organism-based, Sprague-Dawley
# Parameters: regimen Daily Repeat, gender Male, age 6-8 weeks
# assay_setup: in vivo, po, 0 mg/kg, 72 h, tissue Blood, route oral GAVAGE, dose level Control, time 3 day, vehicle .5 % CMC
quantity_kind: BASOPHIL
Answer with the figure and its unit, nothing else.

Could you report BASOPHIL for every entry in the following list?
1. O=C1c2ccccc2C(=O)C1c1ccccc1
2. COc1cc(/C=C/C(=O)O)ccc1O [FERULATE]
3. CN(C)CCC=C1c2ccccc2COc2ccccc21 [DOXEPIN]

Marked response:
1. 0.68%
2. 0%
3. 0%

====

So I've got a bunch of compounds here, and I need their TOTAL BILIRUBIN values.
# Species: Rattus norvegicus
# test_name: DrugMatrix - Regimen: Daily Repeat
# Assay type: toxicity, organism-based, Sprague-Dawley
# Set-up: regimen Daily Repeat, gender Male, age 6-8 weeks
# assay_setup: in vivo, po, 0 mg/kg, 120 h, tissue Plasma, route oral GAVAGE, dose level Control, time 5 day, vehicle .5 % CMC
Answer with the figure and its unit, nothing else.

Consider the following illustrative entries.
{"compound": "NC(=O)NC(=O)Cc1ccccc1 [PHENACEMIDE]", "TOTAL BILIRUBIN": "0.13 mg/dL"}
{"compound": "O=C(O)CCc1nc(-c2ccccc2)c(-c2ccccc2)o1", "TOTAL BILIRUBIN": "0.18 mg/dL"}
{"compound": "Cc1cc2c(s1)Nc1ccccc1N=C2N1CCN(C)CC1", "TOTAL BILIRUBIN": "0.17 mg/dL"}
{"compound": "CCOc1cc(N)c(Cl)cc1C(=O)NCC1CN(Cc2ccc(F)cc2)CCO1 (stereo not given) [MOSAPRIDE]", "TOTAL BILIRUBIN": "0.2 mg/dL"}
{"compound": "CN(C)CCC=C1c2ccccc2COc2ccccc21 [DOXEPIN]", "TOTAL BILIRUBIN": "0.57 mg/dL"}
{"compound": "Cl.NC[C@H]1CC[C@H](C(=O)Oc2ccc(CCC(=O)O)cc2)CC1 [CETRAXATE HYDROCHLORIDE]", "TOTAL BILIRUBIN": "0.2 mg/dL"}
{"compound": "COc1cc(/C=C/C(=O)O)ccc1O [FERULATE]", "TOTAL BILIRUBIN": "0.2 mg/dL"}
{"compound": "O=C1c2ccccc2C(=O)C1c1ccccc1", "TOTAL BILIRUBIN": "0.58 mg/dL"}

Could you report TOTAL BILIRUBIN for every entry in the following list?
1. CCN1C[C@]2(COC)[C@H](O)C[C@H](OC)[C@@]34[C@@H]5C[C@@]6(O)[C@H](OC(=O)c7ccccc7)[C@@H]5[C@@](OC(C)=O)([C@@H]([C@H](OC)[C@H]23)[C@@H]14)[C@@H](O)[C@@H]6OC
2. CC(=O)Nc1ccc2c(c1)Cc1ccccc1-2

Marked response:
["0.58 mg/dL", "0.2 mg/dL"]

====

# Species on record: Rattus norvegicus
# test_name: DrugMatrix - Regimen: Daily Repeat
# Format: toxicity, organism-based, Sprague-Dawley
# Design: regimen Daily Repeat, gender Male, age 6-8 weeks
# assay_setup: in vivo, po, 0 mg/kg, 120 h, tissue Blood, route oral GAVAGE, dose level Control, time 5 day, vehicle 100 % WATER
quantity_kind: BASOPHIL (%)
One number for each entry, in %.

Consider the following illustrative entries.
{"record_smiles": "C1CCN2C[C@@H]3C[C@@H](CN4CCCC[C@@H]34)[C@H]2C1", "BASOPHIL, %": 0}
{"record_smiles": "CC(Cl)(Cl)Cl", "BASOPHIL, %": 0}

Exam item: Any idea what BASOPHIL was measured for C[N+](C)(C)CCOC(N)=O.[Cl-] ?
Marked response: 0
